# assay_system: T1, PTH2 receptor (human)
# T1 chain: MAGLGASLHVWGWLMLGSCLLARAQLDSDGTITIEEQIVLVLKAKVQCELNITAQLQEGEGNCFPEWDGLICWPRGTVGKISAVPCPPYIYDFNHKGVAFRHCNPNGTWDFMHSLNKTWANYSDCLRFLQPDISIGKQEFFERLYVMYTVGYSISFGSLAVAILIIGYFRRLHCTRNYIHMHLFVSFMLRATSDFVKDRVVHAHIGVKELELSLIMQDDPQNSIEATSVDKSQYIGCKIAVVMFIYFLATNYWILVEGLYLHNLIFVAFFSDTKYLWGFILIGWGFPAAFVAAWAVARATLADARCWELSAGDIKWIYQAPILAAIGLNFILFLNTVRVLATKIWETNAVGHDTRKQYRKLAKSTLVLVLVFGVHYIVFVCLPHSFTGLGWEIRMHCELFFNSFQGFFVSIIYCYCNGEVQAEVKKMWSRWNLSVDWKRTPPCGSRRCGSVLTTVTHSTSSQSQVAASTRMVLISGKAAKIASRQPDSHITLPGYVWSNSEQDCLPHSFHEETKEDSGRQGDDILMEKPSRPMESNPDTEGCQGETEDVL
# assay_name: competition, [125I]TIP39, 10 uM GTPgS, HEK293 membranes
outcome_measure: pIC50
Quick note: pIC50 means taking -log10 of the concentration in moles per liter.

Ask: Need pIC50 of DAAFRERARLLAALERRHWLNSYMHKLLVLDAP [TIP(7-39)] , thanks.
Result: 7.01
